Molecular target: Cytochrome P450 2C9 (Homo sapiens)
Sequence (P11712 whole entry): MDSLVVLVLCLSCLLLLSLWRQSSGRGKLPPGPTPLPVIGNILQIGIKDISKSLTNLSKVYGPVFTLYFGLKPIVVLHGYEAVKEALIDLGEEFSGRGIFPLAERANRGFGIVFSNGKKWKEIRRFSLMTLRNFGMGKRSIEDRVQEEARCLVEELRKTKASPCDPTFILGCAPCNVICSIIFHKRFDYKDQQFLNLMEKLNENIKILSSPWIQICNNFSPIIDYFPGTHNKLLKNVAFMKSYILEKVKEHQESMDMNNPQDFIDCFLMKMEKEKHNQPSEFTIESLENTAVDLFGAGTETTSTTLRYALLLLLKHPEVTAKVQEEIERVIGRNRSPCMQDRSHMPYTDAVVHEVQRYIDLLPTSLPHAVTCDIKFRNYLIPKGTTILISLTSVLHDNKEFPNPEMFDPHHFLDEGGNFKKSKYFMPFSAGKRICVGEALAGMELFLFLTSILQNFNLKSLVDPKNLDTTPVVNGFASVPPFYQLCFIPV

molecule	AC50
CC1CCCN(C/C=C/c2ccccc2[N+](=O)[O-])C1 (configuration not stated)	0.2 µM (inconclusive)
COC(=O)c1nn(-c2ccccc2)c(=O)cc1Oc1ccccc1	11.2 µM (inconclusive)
CC(=O)N(/N=C/c1cccc(C)c1)c1nc(-c2ccc(Br)cc2)cs1	1.12 µM (inconclusive)
O=S1(=O)OC(c2ccc(O)cc2)(c2ccc(O)cc2)c2ccccc21	6.31 µM (inconclusive)
COc1ccc(-c2c[n+]3c4n2CCCCC4=C(c2ccccc2)C3)cc1	0.0316 µM (inconclusive)
COC(=O)c1c(NC(=O)CC2Nc3ccccc3NC2=O)sc(C)c1C (configuration not stated)	17.8 µM (inconclusive)
O=C(c1ccco1)N1CCC2(CC1)CCN(C(c1ccccc1)c1ccccc1)CC2	39.8 µM (inconclusive)
O=C(Nc1cnn(Cc2ccc(Cl)cc2)c1)c1ccc([N+](=O)[O-])cc1	0.501 µM (inconclusive)
COc1cccc(Cn2c(=O)c(-c3cn(C)c4ccccc34)nc3cncnc32)c1	0.794 µM (inconclusive)
O=C(c1ccccc1)C1CN(c2ccccc2)CC1c1ccc(Cl)cc1 (configuration not stated)	5.01 µM (inconclusive)
CCNc1ncc2nc(-c3cccs3)c(=O)n(C)c2n1	10 µM (inconclusive)
CCNC(=O)COC(=O)c1cc(-c2ccc(OC)cc2)nc2ccccc12	2.51 µM (inconclusive)
CCSc1nnc(-c2ccccc2NC(C)=O)c(O)n1	31.6 µM (inconclusive)
Nc1c(-c2cccs2)cnn1-c1nc(-c2ccc(F)cc2)cs1	0.158 µM (inconclusive)
CCCCCCC/C=C\CCCCCCCCC(=O)O	39.8 µM (inconclusive)
CCCCCCCCCCn1c2c(c(=N)c3c1CCC3)CCC2	20 µM (inconclusive)
CC(C)OC(=O)c1cc2ccccc2oc1=O	10 µM (inconclusive)

====

Form field: IC50 (one value per entry).
Biological target: Calpain-2 catalytic subunit (Sus scrofa, UniProt P43367)
Sequence (P43367 whole entry): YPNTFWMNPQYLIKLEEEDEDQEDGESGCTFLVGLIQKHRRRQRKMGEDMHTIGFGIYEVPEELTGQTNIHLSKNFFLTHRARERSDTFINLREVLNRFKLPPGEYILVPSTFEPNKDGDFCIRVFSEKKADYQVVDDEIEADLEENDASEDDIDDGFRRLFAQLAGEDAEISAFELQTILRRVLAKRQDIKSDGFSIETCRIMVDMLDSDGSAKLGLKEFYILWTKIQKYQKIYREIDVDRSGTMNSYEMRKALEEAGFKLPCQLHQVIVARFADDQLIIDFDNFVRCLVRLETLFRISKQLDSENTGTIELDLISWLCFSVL
Test: pig calpain II inhibitor potency, dose response, biochemical, fluorogenic peptide substrate (AID 1420)
Format: functional
Calls of active or inactive are those of the source. The rule behind the calls is not given here.

input smiles	measured on	IC50
CC(=O)O/N=C1\C(=O)N(Cc2ccc(C)cc2)c2ccccc21	Calpain-2 catalytic subunit (Sus scrofa, UniProt P43367)	15.5 µM (not active)
CCN(CC)c1ccc(/C=C(\C#N)C(N)=S)cc1	Calpain-2 catalytic subunit (Sus scrofa, UniProt P43367)	5.92 µM (not active)
Cc1[nH]c2ccccc2c1CCN(Cc1cccnc1)C(S)=Nc1cccc(F)c1	Calpain-2 catalytic subunit (Sus scrofa, UniProt P43367)	44.4 µM (not active)
CCOC(=O)c1c(N)sc(C(=O)N2CCCCCC2)c1C	Calpain-2 catalytic subunit (Sus scrofa, UniProt P43367)	> 50 µM (not active)
O=C(Nc1cccnc1)c1cccs1	Calpain-2 catalytic subunit (Sus scrofa, UniProt P43367)	> 50 µM (not active)
CC(=N)/C(C#N)=C(/O)CSc1nnc(COc2ccccc2Cl)o1	Calpain-2 catalytic subunit (Sus scrofa, UniProt P43367)	< 0.4 µM (not active)
CN(C)c1ccnc(Oc2ccc(C(C)(C)C)cc2)c1C#N	Calpain-2 catalytic subunit (Sus scrofa, UniProt P43367)	4.48 µM (not active)
CC(=O)c1ccc(-c2ccc(C(=O)N3CCN(c4ccc(F)cc4)CC3)o2)cc1	Calpain-2 catalytic subunit (Sus scrofa, UniProt P43367)	6.42 µM (not active)
Cc1ccc(C(C)C)c(OCCN=C(S)Nc2cccc3ccccc23)c1	Calpain-2 catalytic subunit (Sus scrofa, UniProt P43367)	6.63 µM (not active)
CCN(CC)C(=O)CSc1nnc(-c2cc(OC)cc(OC)c2)o1	Calpain-2 catalytic subunit (Sus scrofa, UniProt P43367)	> 50 µM (not active)
CCCCCCCCCCn1c2c(c(=N)c3c1CCC3)CCC2	Calpain-2 catalytic subunit (Sus scrofa, UniProt P43367)	6.72 µM (active)

The measurements presented in this section are drawn from ChEMBL document CHEMBL1201862.
